- Tested on: NCI-H1876 complex spheroid growth, % test/control
- Assay explanation: Anticancer human tumor NCI-H1876 cell line growth inhibition [Asc];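 also: compound exposure lasted 7 days starting three days after seeding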;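 as to viability, T/C: 100% = DMSO vehicle control wells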
- Experimental parameters: second compound 0.316 µM; first compound 3.16 µM; stronger effect = lower value
- From the text: Multicellular complex tumor spheroid response to apoptosis pathway targeting inhibitors Alrizomadlin, Pelcitoclax, and Dasminapant in combination with a variety of drugs and investigational agents in selected tumor cell lines […] Compounds. […] If the clinical Cmax for an agent had not been determined, the highest concentration tested was 10 microM. […]

Molecule	viability, T/C, %
C=C(F)C(=O)N1CCN(c2nc(OCC3CCCN3C)nc3c2CCN(c2cccc4cccc(Cl)c24)C3)CC1CC#N (configuration not stated) + CNC(C)C(=O)NC1CN(S(=O)(=O)c2cccc(S(=O)(=O)N3CCC4CCC(C(=O)NC(c5ccccc5)c5ccccc5)N4C(=O)C(NC(=O)C(C)NC)C3)c2)CCC2CCC(C(=O)NC(c3ccccc3)c3ccccc3)N2C1=O	108
C=C(F)C(=O)N1CCN(c2nc(OCC3CCCN3C)nc3c2CCN(c2cccc4cccc(Cl)c24)C3)CC1CC#N (configuration not stated) + Cc1c(S(C)(=O)=O)c(-c2cc(F)cc(N3CCN(c4ccc(NS(=O)(=O)c5ccc(NC(CCN6CCC(C(=O)OCCCP(=O)(O)O)CC6)CSc6ccccc6)c(S(=O)(=O)C(F)(F)F)c5)cc4)CC3)c2)c(-c2ccc(Cl)cc2)n1C(C)C	102

###

- System: NCI-H1876 complex spheroid growth, % test/control
- Assay explanation: Anticancer human tumor NCI-H1876 cell line growth inhibition [Asc];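 also: compound exposure lasted 7 days starting three days after seeding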;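 as to viability, T/C: 100% = DMSO vehicle control wells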
- Experimental parameters: second compound 0.1 µM; first compound 0.001 µM; stronger effect = lower value

Compound	viability, T/C [%]
NC1CCC(NC2CC2c2ccccc2)CC1 (centres undefined) + Cc1c(S(C)(=O)=O)c(-c2cc(F)cc(N3CCN(c4ccc(NS(=O)(=O)c5ccc(NC(CCN6CCC(C(=O)OCCCP(=O)(O)O)CC6)CSc6ccccc6)c(S(=O)(=O)C(F)(F)F)c5)cc4)CC3)c2)c(-c2ccc(Cl)cc2)n1C(C)C	103
Cn1ncnc1[C@H]1c2n[nH]c(=O)c3cc(F)cc(c23)N[C@@H]1c1ccc(F)cc1 + CNC(C)C(=O)NC1CN(S(=O)(=O)c2cccc(S(=O)(=O)N3CCC4CCC(C(=O)NC(c5ccccc5)c5ccccc5)N4C(=O)C(NC(=O)C(C)NC)C3)c2)CCC2CCC(C(=O)NC(c3ccccc3)c3ccccc3)N2C1=O	102
Cn1ncnc1[C@H]1c2n[nH]c(=O)c3cc(F)cc(c23)N[C@@H]1c1ccc(F)cc1 + Cc1c(S(C)(=O)=O)c(-c2cc(F)cc(N3CCN(c4ccc(NS(=O)(=O)c5ccc(NC(CCN6CCC(C(=O)OCCCP(=O)(O)O)CC6)CSc6ccccc6)c(S(=O)(=O)C(F)(F)F)c5)cc4)CC3)c2)c(-c2ccc(Cl)cc2)n1C(C)C	92.9
NC1CCC(NC2CC2c2ccccc2)CC1 (centres undefined) + CNC(C)C(=O)NC1CN(S(=O)(=O)c2cccc(S(=O)(=O)N3CCC4CCC(C(=O)NC(c5ccccc5)c5ccccc5)N4C(=O)C(NC(=O)C(C)NC)C3)c2)CCC2CCC(C(=O)NC(c3ccccc3)c3ccccc3)N2C1=O	128

###

- Tested on: NCI-H1876 complex spheroid growth, % test/control
- Assay explanation: Anticancer human tumor NCI-H1876 cell line growth inhibition [Asc];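 also: compound exposure lasted 7 days starting three days after seeding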
- Experimental parameters: curve of first compound; second compound 0.1 µM
pIC50: −log10 of the molar value.
Assay readout: pIC50

Molecule	Assay readout	Result
NC(=O)C(=Cn1cnc(-c2cc(C(F)(F)F)cc(C(F)(F)F)c2)n1)c1cncnc1 + Cc1c(S(C)(=O)=O)c(-c2cc(F)cc(N3CCN(c4ccc(NS(=O)(=O)c5ccc(NC(CCN6CCC(C(=O)OCCCP(=O)(O)O)CC6)CSc6ccccc6)c(S(=O)(=O)C(F)(F)F)c5)cc4)CC3)c2)c(-c2ccc(Cl)cc2)n1C(C)C	pIC50	< 6.52
NC(=O)C(=Cn1cnc(-c2cc(C(F)(F)F)cc(C(F)(F)F)c2)n1)c1cncnc1 + CNC(C)C(=O)NC1CN(S(=O)(=O)c2cccc(S(=O)(=O)N3CCC4CCC(C(=O)NC(c5ccccc5)c5ccccc5)N4C(=O)C(NC(=O)C(C)NC)C3)c2)CCC2CCC(C(=O)NC(c3ccccc3)c3ccccc3)N2C1=O	pIC50	< 6.52
CNC(C)C(=O)NC1CN(S(=O)(=O)c2cccc(S(=O)(=O)N3CCC4CCC(C(=O)NC(c5ccccc5)c5ccccc5)N4C(=O)C(NC(=O)C(C)NC)C3)c2)CCC2CCC(C(=O)NC(c3ccccc3)c3ccccc3)N2C1=O (stereo not drawn) + Cc1c(S(C)(=O)=O)c(-c2cc(F)cc(N3CCN(c4ccc(NS(=O)(=O)c5ccc(NC(CCN6CCC(C(=O)OCCCP(=O)(O)O)CC6)CSc6ccccc6)c(S(=O)(=O)C(F)(F)F)c5)cc4)CC3)c2)c(-c2ccc(Cl)cc2)n1C(C)C	pIC50	< 6.00

###

- System: NCI-H1876 complex spheroid growth, % test/control
- Assay explanation: Anticancer human tumor NCI-H1876 cell line growth inhibition [Asc];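 also: compound exposure lasted 7 days starting three days after seeding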;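 as to viability, T/C: 100% = DMSO vehicle control wells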
- Experimental parameters: second compound 0.0316 µM; first compound 0.0316 µM; stronger effect = lower value
Catalogue of viability, T/C values

Molecule	Unit label	viability, T/C
C#Cc1c(F)ccc2cc(O)cc(-c3ncc4c(N5CC6CCC(C5)N6)nc(OCC56CCCN5CC(F)C6)nc4c3F)c12 (stereo not drawn) + Cc1c(S(C)(=O)=O)c(-c2cc(F)cc(N3CCN(c4ccc(NS(=O)(=O)c5ccc(NC(CCN6CCC(C(=O)OCCCP(=O)(O)O)CC6)CSc6ccccc6)c(S(=O)(=O)C(F)(F)F)c5)cc4)CC3)c2)c(-c2ccc(Cl)cc2)n1C(C)C	%	98.7
NC1CCC(NC2CC2c2ccccc2)CC1 (stereo not drawn) + Cc1c(S(C)(=O)=O)c(-c2cc(F)cc(N3CCN(c4ccc(NS(=O)(=O)c5ccc(NC(CCN6CCC(C(=O)OCCCP(=O)(O)O)CC6)CSc6ccccc6)c(S(=O)(=O)C(F)(F)F)c5)cc4)CC3)c2)c(-c2ccc(Cl)cc2)n1C(C)C	%	109
C#Cc1c(F)ccc2cc(O)cc(-c3ncc4c(N5CC6CCC(C5)N6)nc(OCC56CCCN5CC(F)C6)nc4c3F)c12 (stereo not drawn) + CNC(C)C(=O)NC1CN(S(=O)(=O)c2cccc(S(=O)(=O)N3CCC4CCC(C(=O)NC(c5ccccc5)c5ccccc5)N4C(=O)C(NC(=O)C(C)NC)C3)c2)CCC2CCC(C(=O)NC(c3ccccc3)c3ccccc3)N2C1=O	%	105

###

- Test system: NCI-H1876 complex spheroid growth, % test/control
- Assay explanation: Anticancer human tumor NCI-H1876 cell line growth inhibition [Asc];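 also: compound exposure lasted 7 days starting three days after seeding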
- Experimental parameters: curve of first compound; second compound 3.16 µM
Assay readout: IC50 (nM)

Compound	Target desc	Inequality symbol	Quantitative result
C=CC(=O)N1CCN(c2nc(=O)n(-c3c(C)ccnc3C(C)C)c3nc(-c4c(O)cccc4F)c(F)cc23)C(C)C1 (configuration not stated) + Cc1c(S(C)(=O)=O)c(-c2cc(F)cc(N3CCN(c4ccc(NS(=O)(=O)c5ccc(NC(CCN6CCC(C(=O)OCCCP(=O)(O)O)CC6)CSc6ccccc6)c(S(=O)(=O)C(F)(F)F)c5)cc4)CC3)c2)c(-c2ccc(Cl)cc2)n1C(C)C	NCI-H1876 complex spheroid growth, % test/control	>	10000
COc1c(OCCCN2CCOCC2)ccc2c3n(c(=NC(=O)c4cnc(N)nc4)nc12)CCN3 + Cc1c(S(C)(=O)=O)c(-c2cc(F)cc(N3CCN(c4ccc(NS(=O)(=O)c5ccc(NC(CCN6CCC(C(=O)OCCCP(=O)(O)O)CC6)CSc6ccccc6)c(S(=O)(=O)C(F)(F)F)c5)cc4)CC3)c2)c(-c2ccc(Cl)cc2)n1C(C)C	NCI-H1876 complex spheroid growth, % test/control	=	118
NC(=O)C(=Cn1cnc(-c2cc(C(F)(F)F)cc(C(F)(F)F)c2)n1)c1cncnc1 + Cc1c(S(C)(=O)=O)c(-c2cc(F)cc(N3CCN(c4ccc(NS(=O)(=O)c5ccc(NC(CCN6CCC(C(=O)OCCCP(=O)(O)O)CC6)CSc6ccccc6)c(S(=O)(=O)C(F)(F)F)c5)cc4)CC3)c2)c(-c2ccc(Cl)cc2)n1C(C)C	NCI-H1876 complex spheroid growth, % test/control	=	163
O=C(c1ccc(F)c(F)c1Nc1ccc(I)cc1F)N1CC(O)([C@@H]2CCCCN2)C1 + Cc1c(S(C)(=O)=O)c(-c2cc(F)cc(N3CCN(c4ccc(NS(=O)(=O)c5ccc(NC(CCN6CCC(C(=O)OCCCP(=O)(O)O)CC6)CSc6ccccc6)c(S(=O)(=O)C(F)(F)F)c5)cc4)CC3)c2)c(-c2ccc(Cl)cc2)n1C(C)C	NCI-H1876 complex spheroid growth, % test/control	>	1000
Cc1nc(N2CCC3(CC2)COC(C)C3N)c(CO)nc1Sc1ccnc(N)c1Cl (configuration not stated) + Cc1c(S(C)(=O)=O)c(-c2cc(F)cc(N3CCN(c4ccc(NS(=O)(=O)c5ccc(NC(CCN6CCC(C(=O)OCCCP(=O)(O)O)CC6)CSc6ccccc6)c(S(=O)(=O)C(F)(F)F)c5)cc4)CC3)c2)c(-c2ccc(Cl)cc2)n1C(C)C	NCI-H1876 complex spheroid growth, % test/control	>	3000
O=C(c1cc(Cc2n[nH]c(=O)c3ccccc23)ccc1F)N1CCN(C(=O)C2CC2)CC1 + Cc1c(S(C)(=O)=O)c(-c2cc(F)cc(N3CCN(c4ccc(NS(=O)(=O)c5ccc(NC(CCN6CCC(C(=O)OCCCP(=O)(O)O)CC6)CSc6ccccc6)c(S(=O)(=O)C(F)(F)F)c5)cc4)CC3)c2)c(-c2ccc(Cl)cc2)n1C(C)C	NCI-H1876 complex spheroid growth, % test/control	=	8470
C#Cc1c(F)ccc2cc(O)cc(-c3ncc4c(N5CC6CCC(C5)N6)nc(OCC56CCCN5CC(F)C6)nc4c3F)c12 (configuration not stated) + Cc1c(S(C)(=O)=O)c(-c2cc(F)cc(N3CCN(c4ccc(NS(=O)(=O)c5ccc(NC(CCN6CCC(C(=O)OCCCP(=O)(O)O)CC6)CSc6ccccc6)c(S(=O)(=O)C(F)(F)F)c5)cc4)CC3)c2)c(-c2ccc(Cl)cc2)n1C(C)C	NCI-H1876 complex spheroid growth, % test/control	>	10000
